SYSTEM_NAME: BRAF V600E (Homo sapiens, UniProt P15056, V600E)
Sequence (P15056 whole entry V600E): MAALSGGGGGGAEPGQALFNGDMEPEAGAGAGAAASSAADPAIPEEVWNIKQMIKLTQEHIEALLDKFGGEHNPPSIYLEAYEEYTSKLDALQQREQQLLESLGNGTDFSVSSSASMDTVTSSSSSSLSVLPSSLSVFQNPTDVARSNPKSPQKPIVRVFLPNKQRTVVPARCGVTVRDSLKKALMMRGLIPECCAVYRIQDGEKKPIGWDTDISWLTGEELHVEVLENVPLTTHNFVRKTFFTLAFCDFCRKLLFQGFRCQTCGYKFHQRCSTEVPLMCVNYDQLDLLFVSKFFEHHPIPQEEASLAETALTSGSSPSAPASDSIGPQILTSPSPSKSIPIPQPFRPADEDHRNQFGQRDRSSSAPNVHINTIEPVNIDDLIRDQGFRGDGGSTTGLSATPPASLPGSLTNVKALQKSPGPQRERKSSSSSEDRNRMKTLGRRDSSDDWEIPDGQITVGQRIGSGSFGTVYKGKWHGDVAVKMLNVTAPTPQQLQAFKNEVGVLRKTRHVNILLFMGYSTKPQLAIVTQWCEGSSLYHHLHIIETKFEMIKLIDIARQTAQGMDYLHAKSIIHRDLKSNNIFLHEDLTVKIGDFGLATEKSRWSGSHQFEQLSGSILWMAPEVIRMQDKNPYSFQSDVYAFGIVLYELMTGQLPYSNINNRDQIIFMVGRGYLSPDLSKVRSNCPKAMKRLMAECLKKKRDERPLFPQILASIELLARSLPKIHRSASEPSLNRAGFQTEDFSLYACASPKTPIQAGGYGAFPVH
METHOD_DESCRIPTION: HiBiT cellular BRAF^V600E degradation assay
Format: cell-based
CONDITION: A375.10 cells, 24 h; concentration at which 50% of total cellular BRAF^V600E is degraded
EXPERIMENTAL_READOUT: DC50 (nM)

Some solved cases for reference:
- CCN(C)S(=O)(=O)Nc1ccc(F)c(Nc2ccc3ncn([C@H]4COC5(CCN(C(=O)CC6(O)CCN(c7cc8c(cc7F)c(N7CCC(=O)NC7=O)nn8C)CC6)CC5)C4)c(=O)c3c2F)c1C#N (single isomer, unassigned) [Example 184]: 8.55
- CCN(C)S(=O)(=O)Nc1ccc(F)c(Oc2ccc3ncn([C@H]4COC5(CCN(C(=O)CC6CCN(c7cc8c(cc7F)c(N7CCC(=O)NC7=O)nn8C)CC6)CC5)C4)c(=O)c3c2)c1C#N [Example 180]: 9.62
- CCN(C)S(=O)(=O)Nc1ccc(F)c(Oc2ccc3ncn(C(C)CCC4CCN(C(=O)CN5CCC(c6ccc(NC7CCC(=O)NC7=O)cc6F)CC5)CC4)c(=O)c3c2)c1C#N (centres unmarked) [Example 10]: 41.9

[A] CCN(C)S(=O)(=O)Nc1ccc(F)c(Oc2ccc3ncn(CCC4CCN(C(=O)CN5CCC(c6ccc(NC7CCC(=O)NC7=O)cc6)CC5)CC4)c(=O)c3c2)c1C#N (centres unmarked) [Example A1]
[B] CCN(C)S(=O)(=O)Nc1ccc(F)c(Oc2ccc3ncn(-c4cnn(C5CCN(C(=O)CN6CCC(c7ccc(NC8CCC(=O)NC8=O)cc7)CC6)CC5)c4)c(=O)c3c2)c1C#N (centres unmarked) [Example 18]
Req: Select one: A or B . Criterion: greater recorded DC50. When you have decided, please share the label of that item.
Resp: A
(A: 78 nM, B: 30.7 nM)
